read-out: UDP glucuronosyltransferase (UGT1A1), UGT1A1 (gene 54658); assay: LTEA_HepaRG_UGT1A1: Life Technologies and Expression Analysis (LTEA) Assay for UDP glucuronosyltransferase (UGT1A1) using HepaRG (AID 2283538); details: mRNA level, 48 h; actives raise or lower the signal
Calls of active or inactive are those of the source. Rule for the calls: active = hit-call score of the fitted dose curve at least 0.9, where 1 is the maximum; inactive = score below 0.9.
Outcome codes: 1 (active), 0 (inactive)

[
  {
    "MOLECULE": "CCCCCCCCOc1ccc(C(=O)c2ccccc2)c(O)c1",
    "ASSIGNED_CLASS": 1
  },
  {
    "MOLECULE": "CC(O)CC(C)(C)O (configuration not stated)",
    "ASSIGNED_CLASS": 0
  },
  {
    "MOLECULE": "CN(C)C(=O)C1(N2CCCCC2)CCN(CC[C@@]2(c3ccc(Cl)c(Cl)c3)CN(C(=O)c3ccccc3)CCO2)CC1",
    "ASSIGNED_CLASS": 1
  },
  {
    "MOLECULE": "CCCCCCCCN(C)CCCCCCCC",
    "ASSIGNED_CLASS": 0
  },
  {
    "MOLECULE": "OCCO",
    "ASSIGNED_CLASS": 0
  },
  {
    "MOLECULE": "O=c1ccc2ccccc2o1",
    "ASSIGNED_CLASS": 1
  },
  {
    "MOLECULE": "CCCCCCCCCCCO",
    "ASSIGNED_CLASS": 0
  }
]
